Recorded HC50 at 18 h for the following compounds
# assay_protocol: Toxicity in human erythrocytes assessed as induction of hemolysis incubated for 18 hrs
# Assay type: cell-based, Erythrocyte

- compound: "C[C@@H]1[C@H](O)[C@@H](C)/C=C/C=C/C=C/C=C/C=C/C=C/C=C/[C@H](O[C@@H]2O[C@H](C)[C@@H](O)[C@H](N)[C@@H]2O)C[C@@H]2O[C@](O)(C[C@@H](O)C[C@@H](O)[C@H](O)C(=O)C[C@@H](O)C[C@@H](O)CC(=O)O[C@H]1C)C[C@H](O)[C@H]2C(=O)O"
  qualifier_sign: ">"
  HC50 at 18 h (µM): 15
- compound: "C[C@@H]1[C@H](O)[C@@H](C)/C=C/C=C/C=C/C=C/C=C/C=C/C=C/[C@H](O[C@@H]2O[C@H](C)[C@@H](O)[C@H](N)[C@@H]2O)C[C@@H]2O[C@](O)(C[C@@H](O)C[C@@H](O)[C@H](O)[C@@H](O)C[C@@H](O)C[C@@H](O)CC(=O)O[C@H]1C)C[C@H](O)[C@H]2C(=O)O"
  qualifier_sign: "="
  HC50 at 18 h (µM): 6.9
- compound: "C[C@@H]1[C@H](O)[C@@H](C)/C=C/C=C/C=C/C=C/C=C/C=C/C=C/[C@H](O[C@@H]2O[C@H](C)[C@@H](O)[C@H](N)[C@@H]2O)C[C@@H]2O[C@](O)(C[C@@H](O)C[C@@H](O)[C@H](O)CC[C@@H](O)C[C@@H](O)CC(=O)O[C@H]1C)C[C@H](O)[C@H]2C(=O)O [AMPHOTERICIN B]"
  qualifier_sign: "="
  HC50 at 18 h (µM): 3.2
- compound: "C[C@@H]1[C@H](O)[C@@H](C)/C=C/C=C/C=C/C=C/C=C/C=C/C=C/[C@H](O[C@@H]2O[C@H](C)[C@@H](O)[C@H](N)[C@@H]2O)C[C@@H]2O[C@](O)(C[C@@H](O)C[C@@H](O)[C@H](O)[C@H](O)C[C@@H](O)C[C@@H](O)CC(=O)O[C@H]1C)C[C@H](O)[C@H]2C(=O)O"
  qualifier_sign: "="
  HC50 at 18 h (µM): 5.4

----------
# assay_protocol: Induction of potassium influx in sterol-free and cholesterol and ergosterol-containing POPC liposomes at 32 uM by BCECF dye based fluorimetric assay
# Format: physicochemical

- structure: "C[C@@H]1[C@H](O)[C@@H](C)/C=C/C=C/C=C/C=C/C=C/C=C/C=C/[C@H](O[C@@H]2O[C@H](C)[C@@H](O)[C@H](N)[C@@H]2O)C[C@@H]2O[C@](O)(C[C@@H](O)C[C@@H](O)[C@H](O)C(=O)C[C@@H](O)C[C@@H](O)CC(=O)O[C@H]1C)C[C@H](O)[C@H]2C(=O)O"
  Activity: "Not Active"
- structure: "C[C@@H]1[C@H](O)[C@@H](C)/C=C/C=C/C=C/C=C/C=C/C=C/C=C/[C@H](O[C@@H]2O[C@H](C)[C@@H](O)[C@H](N)[C@@H]2O)C[C@@H]2O[C@](O)(C[C@@H](O)C[C@@H](O)[C@H](O)[C@H](O)C[C@@H](O)C[C@@H](O)CC(=O)O[C@H]1C)C[C@H](O)[C@H]2C(=O)O"
  Activity: "Not Active"
- structure: "C[C@@H]1[C@H](O)[C@@H](C)/C=C/C=C/C=C/C=C/C=C/C=C/C=C/[C@H](O[C@@H]2O[C@H](C)[C@@H](O)[C@H](N)[C@@H]2O)C[C@@H]2O[C@](O)(C[C@@H](O)C[C@@H](O)[C@H](O)[C@@H](O)C[C@@H](O)C[C@@H](O)CC(=O)O[C@H]1C)C[C@H](O)[C@H]2C(=O)O"
  Activity: "Not Active"
